assay: The drug is tested on Clostridium sp. strain: fecal isolate for biotransformation. The drug concentrations were measured before and after a 12-h incubation by liquid-chromatography-coupled mass spectrometry (LC–MS); details: 2 µM
Reported Property: Bacterial Biotransformation

Below, each entry is followed by its recorded Bacterial Biotransformation result.
compound="CC12CC3CC(C)(C1)CC(N)(C3)C2 [MEMANTINE]" experimental_result="Compound NOT metabolized"
compound="COC1=C(OC)C(=O)C(CCCCCCCCCCO)=C(C)C1=O [IDEBENONE]" experimental_result="Compound NOT metabolized"
compound="Cc1ccnc2c1NC(=O)c1cccnc1N2C1CC1 [NEVIRAPINE]" experimental_result="Compound metabolized"
compound="CN(C)CC(c1ccc(O)cc1)C1(O)CCCCC1.O=C(O)CCC(=O)O (configuration not stated) [DESVENLAFAXINE SUCCINATE]" experimental_result="Compound NOT metabolized"
compound="C#C[C@]1(OC(C)=O)CC[C@H]2[C@@H]3CCC4=CC(=O)CC[C@@H]4[C@H]3CC[C@@]21C [NORETHINDRONE ACETATE]" experimental_result="Compound metabolized"
compound="COc1ccc2cc([C@H](C)C(=O)O)ccc2c1 [NAPROXEN]" experimental_result="Compound NOT metabolized"
compound="CN1CCC(=C2c3ccccc3CCc3cccnc32)CC1.O=C(O)/C=C\\C(=O)O.O=C(O)/C=C\\C(=O)O [AZATADINE MALEATE]" experimental_result="Compound NOT metabolized"
compound="CN(C)CCOC(c1ccc(Cl)cc1)c1ccccn1.O=C(O)/C=C\\C(=O)O (configuration not stated) [CARBINOXAMINE MALEATE]" experimental_result="Compound NOT metabolized"
compound="C[C@]12C=CC(=O)C=C1CC[C@@H]1[C@@H]2C(=O)C[C@@]2(C)[C@H]1CC[C@]2(O)C(=O)CO [PREDNISONE]" experimental_result="Compound NOT metabolized"
compound="O=C(NCc1ccccc1)OCCO [BURAMATE]" experimental_result="Compound NOT metabolized"

Query: Fill in Bacterial Biotransformation for record CCCc1nc(C(C)(C)O)c(C(=O)OCc2oc(=O)oc2C)n1Cc1ccc(-c2ccccc2-c2nnn[nH]2)cc1 [OLMESARTAN MEDOXOMIL]
Reply: Compound metabolized

Query: Fill in Bacterial Biotransformation for record CC[C@H](C)C(=O)O[C@H]1C[C@@H](C)C=C2C=C[C@H](C)[C@H](CC[C@@H]3C[C@@H](O)CC(=O)O3)[C@H]21 [LOVASTATIN]
Reply: Compound metabolized

Query: Fill in Bacterial Biotransformation for record CNC(=C[N+](=O)[O-])NCCSCc1ccc(CN(C)C)o1 [RANITIDINE]
Reply: Compound metabolized

Query: Fill in Bacterial Biotransformation for record CN(CCOc1ccc(CC2SC(=O)NC2=O)cc1)c1ccccn1.O=C(O)/C=C\C(=O)O (configuration not stated) [ROSIGLITAZONE MALEATE]
Reply: Compound NOT metabolized

Query: Fill in Bacterial Biotransformation for record COc1ccc(CN2CCNCC2)c(OC)c1OC.Cl.Cl [TRIMETAZIDINE DIHYDROCHLORIDE]
Reply: Compound NOT metabolized

Query: Fill in Bacterial Biotransformation for record CC(N)C12CC3CC(CC(C3)C1)C2 (configuration not stated) [RIMANTADINE]
Reply: Compound NOT metabolized

Query: Fill in Bacterial Biotransformation for record CCOC(=O)C1=C[C@]2(CC)CCCN3CCc4c(n1c1ccccc41)[C@@H]32 [VINPOCETINE]
Reply: Compound metabolized
